B1: Cytosolic beta-glucosidase, O61594 (parent)
chain: MKLLVVLSLVAVACNASIVRQQRRFPDDFLFGTATASYQIEGAWDEDGKGENIWDYMVHNTPEVIRDLSNGDIAADSYHNYKRDVEMMRELGLDAYRFSLSWARILPTGMANEVNPAGIAFYNNYIDEMLKYNITPLITLYHWDLPQKLQELGGFANPLISDWFEDYARVVFENFGDRVKMFITFNEPREICFEGYGSATKAPILNATAMGAYLCAKNLVTAHAKAYYLYDREFRPVQGGQCGITISVNWFGPATPTPEDEMAAELRRQGEWGIYAHPIFSAEGGFPKELSDKIAEKSAQQGYPWSRLPEFTEEEKAFVRGTSDLIGVNHYTAFLVSATERKGPYPVPSLLDDVDTGSWADDSWLKSASAWLTLAPNSIHTALTHLNNLYNKPVFYITENGWSTDESRENSLIDDDRIQYYRASMESLLNCLDDGINLKGYMAWSLMDNFEWMEGYIERFGLYEVDFSDPARTRTPRKAAFVYKHIIKHRVVDYEYEPETMVMTIDEGH

- Variants of: B1
- conditionContext: Spodoptera frugiperda; pH 6; Thermal; Differential Scanning Fluorimetry; Potassium phosphate 10mM; transition: 2; structure 5CG0; whole UniProt chain shown
endpointLabel: Tm (°C)
Please state the figure in °C; there is no need to write the unit.

INSERT INTO assay_data (mutantdesignation, unittag, reportedmeasurement) VALUES
  ('S247A', '°C', 45.3);

Return reported Tm. Input variant: "E265A" 44.9

Return reported Tm. Input variant: "A263F" 40.6
